System: NCI-H727
Experiment: relative viability (nuclei count vs DMSO), 5 days (fraction); higher = more cells survive
Details: first compound 0.01 µM
Label 1.0 when relative viability is strictly below 0.7; otherwise label 0.0.

Completed entries (count: 3):
molecule	category
O=c1cc(N2CCOCC2)oc2c(-c3cccc4c3sc3ccccc34)cccc12 + CS(=O)(=O)CCNCc1ccc(-c2ccc3ncnc(Nc4ccc(OCc5cccc(F)c5)c(Cl)c4)c3c2)o1 [Lapatinib] (partner 2 µM)	0.0
CCN(CC)CCCCNc1ncc2cc(-c3cc(OC)cc(OC)c3)c(NC(=O)NC(C)(C)C)nc2n1 + O=C(CCCCCCC(=O)Nc1ccccc1)NO [Vorinostat] (partner 1 µM)	0.0
CCN(CC)CCCCNc1ncc2cc(-c3cc(OC)cc(OC)c3)c(NC(=O)NC(C)(C)C)nc2n1 + Nc1ncn([C@H]2C[C@H](O)[C@@H](CO)O2)c(=O)n1 [Decitabine] (partner 2 µM)	0.0

Does the reported relative viability of the following molecule sit strictly below 0.7? O=c1cc(N2CCOCC2)oc2c(-c3cccc4c3sc3ccccc34)cccc12 + Cc1cc(Nc2cc(N3CCN(C)CC3)nc(Sc3ccc(NC(=O)C4CC4)cc3)n2)n[nH]1 [Tozasertib] (partner 0.1 µM)
1.0

Does the reported relative viability of the following molecule sit strictly below 0.7? CCN(CC)CCCCNc1ncc2cc(-c3cc(OC)cc(OC)c3)c(NC(=O)NC(C)(C)C)nc2n1 + CCNC(=O)c1noc(-c2cc(C(C)C)c(O)cc2O)c1-c1ccc(CN2CCOCC2)cc1 [Luminespib] (partner 0.01 µM)
1.0

---

As shown below, each of these compounds has a reported relative viability value.
System: LCLC-103H
Assay: relative viability (nuclei count vs DMSO), 5 days (fraction); higher = more cells survive
Conditions: first compound 0.3162 µM
Lab note: jot down the number only; don't add units.

Before answering, review these 3 worked examples.
compound	measured target	relative viability
CCN(CC)CCCCNc1ncc2cc(-c3cc(OC)cc(OC)c3)c(NC(=O)NC(C)(C)C)nc2n1 + CC(=O)Nc1cccc(-n2c(=O)n(C3CC3)c(=O)c3c(Nc4ccc(I)cc4F)n(C)c(=O)c(C)c32)c1 [Trametinib] (partner 0.02 µM)	LCLC-103H	0.68
O=c1cc(N2CCOCC2)oc2c(-c3cccc4c3sc3ccccc34)cccc12 + COc1cc2c(Oc3ccc(NC(=O)C4(C(=O)Nc5ccc(F)cc5)CC4)cc3F)ccnc2cc1OCCCN1CCOCC1 [Foretinib] (partner 0.25 µM)	LCLC-103H	0.824
CCN(CC)CCCCNc1ncc2cc(-c3cc(OC)cc(OC)c3)c(NC(=O)NC(C)(C)C)nc2n1 + Nc1ncn([C@H]2C[C@H](O)[C@@H](CO)O2)c(=O)n1 [Decitabine] (partner 2 µM)	LCLC-103H	0.809

Please turn your attention to the following entry.
Give the reported relative viability for CCN(CC)CCCCNc1ncc2cc(-c3cc(OC)cc(OC)c3)c(NC(=O)NC(C)(C)C)nc2n1 + NC(=O)Nc1cc(-c2cccc(F)c2)sc1C(=O)N[C@H]1CCCNC1 [AZD7762] (partner 0.2 µM) (system: LCLC-103H).
0.83

---

Test system: NCI-H1975
Experiment: relative viability (nuclei count vs DMSO), 5 days (fraction); higher = more cells survive
Conditions: first compound 0.8 µM
measurement name: relative viability
Lab note: jot down the number only; don't add units.

compound	relative viability
COc1nc(C)cnc1NS(=O)(=O)c1cccnc1-c1ccc(-c2nnco2)cc1 [Zibotentan] + CS(=O)(=O)CCNCc1ccc(-c2ccc3ncnc(Nc4ccc(OCc5cccc(F)c5)c(Cl)c4)c3c2)o1 [Lapatinib] (partner 2 µM)	0.781

Please turn your attention to the following entry.
Give the reported relative viability for COc1nc(C)cnc1NS(=O)(=O)c1cccnc1-c1ccc(-c2nnco2)cc1 [Zibotentan] + CC1(C)CCC(c2ccc(Cl)cc2)=C(CN2CCN(c3ccc(C(=O)NS(=O)(=O)c4ccc(N[C@H](CCN5CCOCC5)CSc5ccccc5)c(S(=O)(=O)C(F)(F)F)c4)cc3)CC2)C1 [Navitoclax] (partner 0.5 µM) (system: NCI-H1975).
1.05
